Target: Human-A1 (CHO-A1) (Homo sapiens, UniProt P30542)
Construct: expressed in transfected cells; host or cells: CHO cells, stably transfected (CHO-A1)
Sequence (P30542 whole entry): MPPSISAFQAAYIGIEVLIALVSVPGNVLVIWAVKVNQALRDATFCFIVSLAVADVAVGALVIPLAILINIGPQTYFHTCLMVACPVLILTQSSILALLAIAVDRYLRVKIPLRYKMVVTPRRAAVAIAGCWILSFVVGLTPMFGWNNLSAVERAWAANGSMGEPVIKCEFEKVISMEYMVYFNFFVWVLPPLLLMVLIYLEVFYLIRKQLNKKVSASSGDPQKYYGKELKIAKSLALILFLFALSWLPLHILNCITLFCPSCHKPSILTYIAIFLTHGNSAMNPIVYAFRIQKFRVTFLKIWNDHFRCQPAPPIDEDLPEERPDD
Assay: Radioligand binding, human A1 AdoR, CHO-A1 membranes
Details: 3H-CPX radioligand; CHO-A1 membranes; read-out: Ki (low) Human-A1 CHO-A1
Metric: pKi
Entry type: numeric. Quantity: pKi, the -log10 of concentration in molar units.

Solved entries:
Smiles notation | Metric | Endpoint value
Cn1c(-c2cccnc2)nc2c(NC3CCCC3)ncnc21 | pKi | 6.74
Cn1c(-c2ccccc2)nc2c(NC3CCCCC3)ncnc21 | pKi | 8.70
CCn1c(-c2ccccc2)nc2c(NC3CCCCC3)ncnc21 | pKi | 7.96
Cc1ccc(-c2nc3c(NC4CCCC4)ncnc3n2C)cc1 | pKi | 8.30

Please find the next molecule below.
Req: Hello, I am looking for reported pKi with Human-A1 (CHO-A1) (Homo sapiens, UniProt P30542) for COc1ccc(-c2nc3c(NC4CCCC4)ncnc3n2C)cc1 . Could you help?
Resp: 7.49

====

Quick reference for Ki among some molecules
Target: Human-A1 (CHO-A1) (Homo sapiens)
Construct: expressed in transfected cells; host or cells: CHO cells, stably transfected (CHO-A1)
Test: Radioligand binding, human A1 AdoR, CHO-A1 membranes
Conditions: 3H-CPX radioligand; CHO-A1 membranes; read-out: Ki (low) Human-A1 CHO-A1
Answer with a number only, understood to be in nM.

Req: // query Ki value for entry Cn1c(-c2ccc(F)cc2)nc2c(NC3CCCC3)ncnc21
Resp: 5

Req: Try this molecule next: Cn1c(-c2ccc(Cl)cc2)nc2c(NC3CCCC3)ncnc21
Resp: 9

Req: Try this molecule next: Cc1cccc(-c2nc3c(NC4CCCC4)ncnc3n2C)c1
Resp: 5

Req: Try this molecule next: CCCn1c(-c2ccccc2)nc2c(NC3CCCCC3)ncnc21
Resp: 25

Req: Try this molecule next: Cc1ccccc1-c1nc2c(NC3CCCC3)ncnc2n1C
Resp: 42

Req: Try this molecule next: Cn1c(-c2cccc(Cl)c2)nc2c(NC3CCCC3)ncnc21
Resp: 5

====

Biological target: Human-A1 (CHO-A1) (Homo sapiens, UniProt P30542)
Construct: expressed in transfected cells; host or cells: CHO cells, stably transfected (CHO-A1)
Test: Radioligand binding, human A1 AdoR, CHO-A1 membranes
Metric: Ki
Write down the value, and be sure its unit follows.

Req: // query Ki value for entry Cn1c(-c2ccc(O)cc2)nc2c(NC3CCCC3)ncnc21
Resp: 9 nM

====

Molecular target: Hamster-A1 (DDT1 MF-2) (Mesocricetus auratus)
Sequence (A0A1U8BVR4 1-326): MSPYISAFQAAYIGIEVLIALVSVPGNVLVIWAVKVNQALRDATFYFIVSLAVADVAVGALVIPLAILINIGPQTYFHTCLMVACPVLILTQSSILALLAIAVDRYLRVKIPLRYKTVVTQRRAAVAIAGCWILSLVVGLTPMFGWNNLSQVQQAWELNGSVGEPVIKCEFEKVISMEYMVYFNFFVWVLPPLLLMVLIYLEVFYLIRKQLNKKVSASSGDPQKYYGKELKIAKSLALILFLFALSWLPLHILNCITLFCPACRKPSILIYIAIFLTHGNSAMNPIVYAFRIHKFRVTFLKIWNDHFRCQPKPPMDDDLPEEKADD
Experiment: Radioligand binding, hamster A1 AdoR, DDT1 MF-2 membranes
Details: 3H-CPX radioligand; DDT1 MF-2 membranes; read-out: Ki (low) Hamster-A1 DDT1 MF-2
Rule for this label: Yes means Ki is less than 3 nM; No means Ki is at least 3 nM.

Please review the entries below; each comes with its answer.
Smiles notation | Target of assay | Class
Cn1c(-c2ccc(F)cc2)nc2c(NC3CCCC3)ncnc21 | Hamster-A1 (DDT1 MF-2) (Mesocricetus auratus) | Yes
Cc1ccccc1-c1nc2c(NC3CCCC3)ncnc2n1C | Hamster-A1 (DDT1 MF-2) (Mesocricetus auratus) | No
COc1ccc(-c2nc3c(NC4CCCC4)ncnc3n2C)cc1 | Hamster-A1 (DDT1 MF-2) (Mesocricetus auratus) | No
CCCn1c(-c2ccccc2)nc2c(NC3CCCCC3)ncnc21 | Hamster-A1 (DDT1 MF-2) (Mesocricetus auratus) | No
Cc1cccc(-c2nc3c(NC4CCCC4)ncnc3n2C)c1 | Hamster-A1 (DDT1 MF-2) (Mesocricetus auratus) | Yes

Now for a further compound.
Req: Is 3 nM strictly greater than the compound's reported Ki? compound: CCn1c(-c2ccccc2)nc2c(NC3CCCCC3)ncnc21
Resp: No
